The origin of these recorded values is ChEMBL document CHEMBL4270484.

test: Solubility in pH 7.4 PBS at 3.83 mg in 100 ul solution sonicated for 5 mins followed by incubation at room temperature for 30 mins; type: physicochemical
ASSAY READOUT: solubility at 0.5 h (mM)

smi=N.O=C(/C=C/c1ccc(OCOP(=O)(O)O)cc1)c1ccc(O)cc1O unit_abbreviation=mM quantitative_readout=100

###

experiment: Solubility in pH 7.4 PBS at 0.5 mg in 8 ul solution sonicated for 5 mins followed by incubation at room temperature for 30 mins; type: physicochemical
ASSAY READOUT: solubility at 0.5 h (mM)

smi=O=C(/C=C/c1ccc(O)cc1)c1ccc(O)cc1O quantitative_readout=250

###

experiment: Solubility in pH 7.4 PBS at 0.5 mg in 2 ul solution sonicated for 5 mins followed by incubation at room temperature for 30 mins; type: physicochemical
ASSAY READOUT: solubility at 0.5 h (mM)

compound="O=C(/C=C/c1ccc(O)cc1)c1ccc(O)cc1O [ISOLIQUIRITIGENIN]" quantitative_readout=1000

###

assay: Stability of the compound in amophous solid form at -20 degC incubated for 16 days; assay type: physicochemical; details: amorphous solid form; read-out: Stability
ASSAY READOUT: remaining at 384 h (%)

smi=O=C(/C=C/c1ccc(OCOP(=O)(O)O)cc1)c1ccc(O)cc1O unit_abbreviation=% quantitative_readout=80

###

assay: Solubility in pH 7.4 PBS at 0.5 mg in 4 ul solution sonicated for 5 mins followed by incubation at room temperature for 30 mins; format: physicochemical
ASSAY READOUT: solubility at 0.5 h (mM)

smi=O=C(/C=C/c1ccc(O)cc1)c1ccc(O)cc1O quantitative_readout=500

###

assay: Solubility in pH 7.4 PBS at 3.83 mg in 400 ul solution sonicated for 5 mins followed by incubation at room temperature for 30 mins; type: physicochemical
ASSAY READOUT: solubility at 0.5 h (mM)

smi=N.O=C(/C=C/c1ccc(OCOP(=O)(O)O)cc1)c1ccc(O)cc1O quantitative_readout=25

###

experiment: Stability of the compound in pH 7.4 phosphate buffer solution at 4 degC incubated for 16 days; assay type: physicochemical; conditions: phosphate buffer solution, pH 7.4; read-out: Stability
ASSAY READOUT: remaining at 384 h

smi=O=C(/C=C/c1ccc(OCOP(=O)(O)O)cc1)c1ccc(O)cc1O result=60%

###

assay: Solubility in pH 7.4 PBS at 0.5 mg in 64 ul solution sonicated for 5 mins followed by incubation at room temperature for 30 mins; format: physicochemical
ASSAY READOUT: solubility at 0.5 h (mM)

compound="O=C(/C=C/c1ccc(O)cc1)c1ccc(O)cc1O [ISOLIQUIRITIGENIN]" unit_abbreviation=mM quantitative_readout=31.2

###

assay: Solubility in pH 7.4 PBS sonicated for 5 mins followed by incubation at room temperature for 30 mins; assay type: physicochemical
ASSAY READOUT: solubility at 0.5 h (mM)

smi=O=C(/C=C/c1ccc(O)cc1)c1ccc(O)cc1O assay_readout="solubility at 0.5 h" quantitative_readout=0.0153
smi=N.O=C(/C=C/c1ccc(OCOP(=O)(O)O)cc1)c1ccc(O)cc1O assay_readout="solubility at 0.5 h" quantitative_readout=25

###

assay: Solubility in pH 7.4 PBS at 0.5 mg in 128 ul solution sonicated for 5 mins followed by incubation at room temperature for 30 mins; assay type: physicochemical
ASSAY READOUT: solubility at 0.5 h

smi=O=C(/C=C/c1ccc(O)cc1)c1ccc(O)cc1O result="15.3 mM"
